- system.name: SARS-CoV-2 3CLpro (Severe acute respiratory syndrome coronavirus 2)
- protocol.summary: biochemical
- Assay type: biochemical
- run.conditions: 4 h, sheet LOPAC_screen_w_protease; LOPAC1280 primary screen with protease, 5 µM compound; replicate 2; read-out: Replicate_2
Counter-ions that a name gives are not always drawn.
property.name: inhibition at 5 µM (%)
Please give a number only; it is taken to be in %.

CC1(C)CCC(NC(=O)[C@@H](N)CCC(=O)O)CC1    5.96
C=CCN1CC[C@]23CCCC[C@H]2[C@H]1Cc1ccc(O)cc13 [Levallorphan tartrate]    2.81
CC1COc2c(N3CCN(C)CC3)c(F)cc3c(=O)c(C(=O)O)cn1c23 (stereo not drawn)    7.14
CCOC(=O)C1=C(C)NC(C)=C(C(=O)OC)C1c1cccc([N+](=O)[O-])c1 (stereo not drawn)    5.19
NC(=O)c1ncn([C@@H]2O[C@H](CO)[C@@H](O)[C@H]2O)c1O    5.05

Reported inhibition at 5 µM, molecule `CC(=O)[C@H]1CC[C@H]2[C@@H]3CCC4=CC(=O)CC[C@]4(C)[C@H]3CC[C@]12C` : ____
7.53

---

- system.name: SARS-CoV-2 3CLpro (Severe acute respiratory syndrome coronavirus 2)
- protocol.summary: biochemical
- Type: biochemical
- run.conditions: 4 h, sheet LOPAC_screen_w_protease; LOPAC1280 primary screen with protease, 5 µM compound; mean of the two replicates; read-out: mean
Where a name gives a salt, the structure may show the parent alone.
property.name: inhibition at 5 µM (%)
Please give a number only; it is taken to be in %.

These recorded examples may help you get a feel for the data.
NCCCCNCCCN [Spermidine trihydrochloride]    4.14
O=C(O)c1cccnc1Nc1cccc(C(F)(F)F)c1 [Niflumic acid]    4.95

Could you now look at the following compound, please?
Reported inhibition at 5 µM, compound CNC1(C)C2CCC(C2)C1(C)C (stereo not drawn) [Mecamylamine hydrochloride] : ____
4.7

---

Property: mean (LOPAC_screen_w_protease); scope: individual compounds
- system.name: SARS-CoV-2 3CLpro (Severe acute respiratory syndrome coronavirus 2)
- protocol.summary: biochemical
- Format: biochemical
- Parameters: unit not given here
I'd appreciate a reply containing only the number, no unit.

Reported mean (LOPAC_screen_w_protease), compound Brc1c(NC2=NCCN2)ccc2nccnc12 [UK 14,304] : ____
2.07

---

Property: Replicate_1; scope: individual compounds
- system.name: SARS-CoV-2 3CLpro (Severe acute respiratory syndrome coronavirus 2, UniProt P0DTD1)
- protocol.summary: biochemical
- Type: biochemical
- Set-up: unit not given here
- run.conditions: sheet LOPAC_screen_w_protease; LOPAC1280 primary screen with protease, 5 µM compound; replicate 1
I'd appreciate a reply containing only the number, no unit.

CC(C)NCC(O)c1cc(O)cc(O)c1.CC(C)NCC(O)c1cc(O)cc(O)c1.O=S(=O)(O)O (stereo not drawn) [Metaproterenol hemisulfate]    2.0521

Reported Replicate_1, compound NCCCS(=O)(=O)O.[Na] [3-Amino-1-propanesulfonic acid sodium] : ____
6.514

Reported Replicate_1, compound `CNCCc1c[nH]c2ccc(O)cc12.O=C(O)C(=O)O` : ____
5.7

Reported Replicate_1, compound `OC1(c2ccc(Cl)cc2)CCN(Cc2c[nH]c3ccccc23)CC1` : ____
4.691

Reported Replicate_1, compound `CCCCCCN(CCCCCC)C(=O)Cc1c(-c2ccc(F)cc2)[nH]c2ccccc12` : ____
5.9351

Reported Replicate_1, compound Cl.Cl.Fc1ccc(C(OCCN2CCN(CCCc3ccccc3)CC2)c2ccc(F)cc2)cc1 [GBR-12909 dihydrochloride] : ____
4.518

Reported Replicate_1, compound CCn1cc(C(=O)[O-])c(=O)c2ccc(C)nc21.[Na+] [Nalidixic acid sodium] : ____
4.1091
